- Subject Of Test: CRBN (Homo sapiens (Human), UniProt Q96SW2)
- Sequence (Q96SW2 whole entry): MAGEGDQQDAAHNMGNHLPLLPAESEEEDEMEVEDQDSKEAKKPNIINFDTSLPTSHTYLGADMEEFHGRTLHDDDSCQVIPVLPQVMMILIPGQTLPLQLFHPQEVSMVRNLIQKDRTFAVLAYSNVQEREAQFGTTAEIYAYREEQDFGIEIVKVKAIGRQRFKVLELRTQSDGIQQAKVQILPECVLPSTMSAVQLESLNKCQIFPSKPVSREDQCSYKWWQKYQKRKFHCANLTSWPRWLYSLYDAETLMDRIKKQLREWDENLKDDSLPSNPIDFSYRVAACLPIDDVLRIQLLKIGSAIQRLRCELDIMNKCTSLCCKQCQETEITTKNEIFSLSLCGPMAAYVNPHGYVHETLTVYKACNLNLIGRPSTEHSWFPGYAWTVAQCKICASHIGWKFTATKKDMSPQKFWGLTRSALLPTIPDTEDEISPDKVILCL
- Experimental Details: Cellular CRBN dBET6 displacement assay (BRD4BD2-GFP/mCherry reporter cells)
- Assay type: cell-based
- Experimental Setup: Flip-In 293 cells stably expressing BRD4BD2-GFP, 100 nM dBET6, 5 hours; read-out: Cellular CRBN-BRD4 dBET6 displacement EC50
- Description: BRD4BD2 were subcloned into mammalian pcDNA5/FRT Vector (Ampicillin and Hygromycin B resistant) modified to contain MCS-eGFP-P2A-mCherry. […] Signal from minimal 3000 events per well was acquired and the eGFP and mCherry florescence monitored. Data was analyzed using FlowJo® (FlowJo®, LCC). […] The eGFP protein abundance relative to mCherry was then quantified as a ten-fold amplified ratio for each individual cell using the formula: 10×eGFP/mCherry. […]
Readout Label: EC50 (µM)
Quick note: give the figure in µM, leave out the unit.

Specify EC50 for O=C1CCC(N2Cc3c(Nc4ccnc(Nc5ccc6ccccc6c5)n4)cccc3C2=O)C(=O)N1 (stereo not shown) [Compound 45] and stop.
2.06

Specify EC50 for COc1ccc(Nc2nccc(Nc3cccc4c3CN(C3CCC(=O)NC3=O)C4=O)n2)cc1 (stereo not shown) [Compound 18] and stop.
2.69

Specify EC50 for CN(c1ccccc1)c1nccc(Nc2cccc3c2CN(C2CCC(=O)NC2=O)C3=O)n1 (stereo not shown) [Compound 27] and stop.
1.25

Specify EC50 for COc1cc(F)ccc1-c1nc(Nc2cccc3c2CN(C2CCC(=O)NC2=O)C3=O)c2nc[nH]c2n1 (stereo not shown) [Compound 49] and stop.
12.4

Specify EC50 for O=C1CCC(N2Cc3c(NC(=O)CNc4ccnc(Nc5ccc6c(c5)CCC6)n4)cccc3C2=O)C(=O)N1 (stereo not shown) [Compound 2] and stop.
47.9

Specify EC50 for COc1cc(F)ccc1-c1nccc(Nc2cccc3c2CN(C2CCC(=O)NC2=O)C3=O)n1 (stereo not shown) [Compound 33] and stop.
2.59

Specify EC50 for O=C1CCC(N2Cc3c(Nc4ccnc(N5CCC[C@@H]5CO)n4)cccc3C2=O)C(=O)N1 (stereo partly shown) [Compound 30] and stop.
8.15

Specify EC50 for COc1ccccc1Nc1nccc(Nc2cccc3c2CN(C2CCC(=O)NC2=O)C3=O)n1 (stereo not shown) [Compound 38] and stop.
2.6

Specify EC50 for O=C1CCC(N2Cc3c(Nc4ccnc(Nc5ccccc5F)n4)cccc3C2=O)C(=O)N1 (stereo not shown) [Compound 21] and stop.
2.31

Specify EC50 for O=C1CCC(N2Cc3c(Nc4ccnc(Nc5ccc6c(c5)CCC6)n4)cccc3C2=O)C(=O)N1 (stereo not shown) [Compound 24] and stop.
1.35

Specify EC50 for O=C1CCC(N2Cc3c(Nc4ccnc(Nc5ccc6c(c5)OCCO6)n4)cccc3C2=O)C(=O)N1 (stereo not shown) [Compound 19] and stop.
3.63

Specify EC50 for O=C1CCC(N2Cc3c(Nc4ccnc(Nc5ccc6c(c5)CCN6)n4)cccc3C2=O)C(=O)N1 (stereo not shown) [Compound 43] and stop.
25.3

Specify EC50 for COc1cc(OC)cc(-c2nc(Nc3cccc4c3CN(C3CCC(=O)NC3=O)C4=O)c3nc[nH]c3n2)c1 (stereo not shown) [Compound 51] and stop.
6.83

Specify EC50 for CC(=O)c1ccc(-c2nccc(Nc3cccc4c3CN(C3CCC(=O)NC3=O)C4=O)n2)cc1 (stereo not shown) [Compound 20] and stop.
1.26

Specify EC50 for O=C1CCC(N2Cc3c(Nc4nc(-c5ccc(-c6ccccc6)cc5)nc5[nH]cnc45)cccc3C2=O)C(=O)N1 (stereo not shown) [Compound 48] and stop.
12.4

Specify EC50 for O=C1CCC(N2Cc3c(Nc4nc(-c5ccc(F)cc5)nc5[nH]cnc45)cccc3C2=O)C(=O)N1 (stereo not shown) [Compound 50] and stop.
8.29

====

- Subject Of Test: DDB1ΔB-CRBN (Homo sapiens (Human), UniProt Q96SW2)
Readout Label: IC50 (µM)
Quick note: give the figure in µM, leave out the unit.

Specify IC50 for COc1ccccc1Nc1nccc(NCC(=O)Nc2cccc3c2CN(C2CCC(=O)NC2=O)C3=O)n1 (stereo not shown) [Compound 15] and stop.
15.2

Specify IC50 for CC(=O)c1ccc(-c2nccc(NCC(=O)Nc3cccc4c3CN(C3CCC(=O)NC3=O)C4=O)n2)cc1 (stereo not shown) [Compound 12] and stop.
13.8

Specify IC50 for O=C1CCC(N2Cc3c(NC(=O)CNc4ccnc(N5CCC[C@@H]5CO)n4)cccc3C2=O)C(=O)N1 (stereo partly shown) [Compound 14] and stop.
1.6

Specify IC50 for O=C1CCC(N2Cc3c(NC(=O)CNc4ccnc(Nc5ccc6c(c5)OCO6)n4)cccc3C2=O)C(=O)N1 (stereo not shown) [Compound 5] and stop.
42.5

Specify IC50 for O=C1CCC(N2Cc3c(NC(=O)CNc4ccnc(N5CCC[C@H]5CO)n4)cccc3C2=O)C(=O)N1 (stereo partly shown) [Compound 4] and stop.
8.5

Specify IC50 for COc1cccc(-c2nccc(NCC(=O)Nc3cccc4c3CN(C3CCC(=O)NC3=O)C4=O)n2)c1 (stereo not shown) [Compound 9] and stop.
22.1

Specify IC50 for COc1ccc(OC)c(-c2nccc(NCC(=O)Nc3cccc4c3CN(C3CCC(=O)NC3=O)C4=O)n2)c1 (stereo not shown) [Compound 10] and stop.
18.9

====

- Subject Of Test: CRBN (Homo sapiens (Human), UniProt Q96SW2)
- Experimental Details: Cellular CRBN dBET6 displacement assay (BRD4BD2-GFP/mCherry reporter cells)
- Type: cell-based
- Experimental Setup: Flip-In 293 cells stably expressing BRD4BD2-GFP, 100 nM dBET6, 5 hours; read-out: Cellular CRBN-BRD4 dBET6 displacement EC50
So basically, if EC50 comes in under 4 µM it's Condition met, and if it's 4 µM or more it's Condition not met.

is_below(EC50, 4 µM) for O=C1CCC(N2Cc3c(Nc4ccnc(NC56CC7CC(CC(C7)C5)C6)n4)cccc3C2=O)C(=O)N1 (stereo not shown) ?
Condition met

is_below(EC50, 4 µM) for O=C1CCC(N2Cc3c(Nc4ccnc(-c5ccc(-c6ccccc6)cc5)n4)cccc3C2=O)C(=O)N1 (stereo not shown) ?
Condition not met

is_below(EC50, 4 µM) for O=C1CCC(N2Cc3c(Nc4ccnc(N5CCC[C@H]5CO)n4)cccc3C2=O)C(=O)N1 (stereo partly shown) ?
Condition not met

is_below(EC50, 4 µM) for CC(C)n1cnc2c(Nc3cccc4c3CN(C3CCC(=O)NC3=O)C4=O)nc(Nc3ccc4c(c3)CCC4)nc21 (stereo not shown) ?
Condition met

is_below(EC50, 4 µM) for Cc1cc(C)c(Nc2nccc(Nc3cccc4c3CN(C3CCC(=O)NC3=O)C4=O)n2)c(C)c1 (stereo not shown) ?
Condition met

is_below(EC50, 4 µM) for COc1ccc(-c2nccc(Nc3cccc4c3CN(C3CCC(=O)NC3=O)C4=O)n2)c(OC)c1 (stereo not shown) ?
Condition met

is_below(EC50, 4 µM) for COc1cccc(-c2nccc(Nc3cccc4c3CN(C3CCC(=O)NC3=O)C4=O)n2)c1 (stereo not shown) ?
Condition not met

====

I'd be grateful if you could share measured EC50 for these entries.
- Subject Of Test: CRBN (Homo sapiens (Human))
- Experimental Details: Cellular CRBN dBET6 displacement assay (BRD4BD2-GFP/mCherry reporter cells)
- Assay type: cell-based
- Experimental Setup: Flip-In 293 cells stably expressing BRD4BD2-GFP, 100 nM dBET6, 5 hours; read-out: Cellular CRBN-BRD4 dBET6 displacement EC50
Quick note: give the figure in µM, leave out the unit.

Specify EC50 for O=C1CCC(N2Cc3c(Nc4ccnc(Nc5ccc6c(c5)-c5ccccc5C6)n4)cccc3C2=O)C(=O)N1 (stereo not shown) [Compound 46] and stop.
1.13

Specify EC50 for CC(C)C(CO)Nc1nccc(Nc2cccc3c2CN(C2CCC(=O)NC2=O)C3=O)n1 (stereo not shown) [Compound 37] and stop.
9.74

Specify EC50 for O=C1CCC(N2Cc3c(Nc4ccnc(-c5cc6ccccc6o5)n4)cccc3C2=O)C(=O)N1 (stereo not shown) [Compound 36] and stop.
2.24

Specify EC50 for COc1ccccc1-c1nc(Nc2cccc3c2CN(C2CCC(=O)NC2=O)C3=O)c2nc[nH]c2n1 (stereo not shown) [Compound 47] and stop.
27.1

====

I'd be grateful if you could share measured EC50 for these entries.
- Subject Of Test: CRBN (Homo sapiens (Human))
- Experimental Details: Cellular CRBN dBET6 displacement assay (BRD4BD2-GFP/mCherry reporter cells)
- Type: cell-based
- Experimental Setup: unit printed as 'M' in the text (Table 1 gives μM); 100 nM dBET6, 5 hours; read-out: Cellular CRBN engagement EC50
The number alone won't do; follow it with the unit.

Specify EC50 for O=C1CCC(N2Cc3c(Nc4ccnc(-c5ccc(F)cc5)n4)cccc3C2=O)C(=O)N1 (stereo not shown) [Compound 39] and stop.
0.742 µM

Specify EC50 for O=C1CCC(N2Cc3c(Nc4ccnc(N5CCN(c6cccc(C(F)(F)F)c6)CC5)n4)cccc3C2=O)C(=O)N1 (stereo not shown) [Compound 23] and stop.
0.66 µM

Specify EC50 for CCN(Cc1ccccc1)c1nccc(Nc2cccc3c2CN(C2CCC(=O)NC2=O)C3=O)n1 (stereo not shown) [Compound 26] and stop.
0.67 µM

Specify EC50 for O=C1CCC(N2Cc3c(Nc4ccnc(Nc5ccc6c(c5)CCCC6)n4)cccc3C2=O)C(=O)N1 (stereo not shown) [Compound 52] and stop.
0.46 µM
